pKi: −log10 of the molar value.
This section presents pKi values reported for human PDE10A2 (Homo sapiens (Human), UniProt Q9Y233) in the literature.
Please mark condition met if the recorded pKi is equal to or greater than 8, and condition not met if it falls below.

- molecule: "CCc1nc(C)nn1-c1cc(N2CC(c3nc4ccccc4n3C)C2)nc(C(F)(F)F)n1"
  measured.on: "human PDE10A2 (Homo sapiens (Human), UniProt Q9Y233)"
  group.label: "condition met"
- molecule: "Cc1ccc([C@H]2C[C@@H]2COc2nc(C)ncc2-c2cnsc2)nc1"
  measured.on: "human PDE10A2 (Homo sapiens (Human), UniProt Q9Y233)"
  group.label: "condition met"
- molecule: "COc1ccc([C@H]2C[C@@H]2COc2nc(C)ncc2-c2ccc(OC(CO)CO)nc2)nc1"
  measured.on: "human PDE10A2 (Homo sapiens (Human), UniProt Q9Y233)"
  group.label: "condition met"
- molecule: "Cc1nc([C@@H]2C[C@H]2c2nc3ccccn3c2C)cc(-n2nc(C)nc2C)n1 (relative stereo)"
  measured.on: "human PDE10A2 (Homo sapiens (Human), UniProt Q9Y233)"
  group.label: "condition met"
- molecule: "Cc1nc(C2CC2c2nc3ccc(Cl)cc3[nH]2)cc(-n2nc(C)nc2C)n1 (centres unmarked)"
  measured.on: "human PDE10A2 (Homo sapiens (Human), UniProt Q9Y233)"
  group.label: "condition not met"
- molecule: "C=CCn1ccc(-c2cnc(C)nc2OC[C@H]2C[C@@H]2c2ccc(C)cn2)cc1=O"
  measured.on: "human PDE10A2 (Homo sapiens (Human), UniProt Q9Y233)"
  group.label: "condition met"
- molecule: "COc1ccc([C@H]2C[C@@H]2COc2nc(C)ncc2-c2nnn(C(F)F)n2)nc1"
  measured.on: "human PDE10A2 (Homo sapiens (Human), UniProt Q9Y233)"
  group.label: "condition not met"
